assayedTarget: human oxytocin receptor (Homo sapiens, UniProt P30559)
Construct: host or cells: CHO cells, stably transfected (pcDNA3.1 vector)
Sequence (P30559 1-389): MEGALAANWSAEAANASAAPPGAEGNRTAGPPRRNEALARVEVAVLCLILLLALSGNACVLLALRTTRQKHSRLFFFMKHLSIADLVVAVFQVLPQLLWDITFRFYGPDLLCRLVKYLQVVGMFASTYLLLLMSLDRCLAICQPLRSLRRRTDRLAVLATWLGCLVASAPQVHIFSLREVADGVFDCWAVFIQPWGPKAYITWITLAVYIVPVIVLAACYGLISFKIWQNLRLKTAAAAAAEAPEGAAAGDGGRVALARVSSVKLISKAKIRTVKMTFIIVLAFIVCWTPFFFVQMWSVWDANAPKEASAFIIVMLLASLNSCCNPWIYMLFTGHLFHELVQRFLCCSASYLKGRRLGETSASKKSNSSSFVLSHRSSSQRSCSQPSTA
testDescription: Oxytocin binding in CHO cell membranes expressing human oxytocin receptors ([3H]oxytocin radioligand binding)
experimentalSetup: 100 nM, read-out: OT % inhibition @ 100 nM
propertyMeasured: inhibition at 0.1 µM (%)
Number only, in %; omit the unit.

Some compounds with recorded inhibition at 0.1 µM:
- compoundStructureString: "COc1cc(-c2ccccc2C)c(Cl)cc1C(=O)N1Cc2ccc(C(=O)NCc3cccnc3)n2Cc2ccccc21"
  unitsLabel: "%"
  inhibition at 0.1 µM: 33
- compoundStructureString: "COc1ccccc1-c1ccc(C(=O)N2Cc3ccc(C(=O)NCc4cccnc4)n3Cc3ccccc32)cc1OC"
  unitsLabel: "%"
  inhibition at 0.1 µM: 37
- compoundStructureString: "COc1cccc(-c2cc(OC)c(C(=O)N3Cc4ccc(C(=O)N(C)Cc5cccnc5)n4Cc4ccccc43)cc2Cl)c1"
  unitsLabel: "%"
  inhibition at 0.1 µM: 83

Entry `COc1ccccc1-c1ccc(C(=O)N2Cc3ccc(C(=O)N4CCN(c5ccncc5)CC4)n3Cc3ccccc32)cc1OC` : reported inhibition at 0.1 µM = ?
61

Entry `O=C(c1ccc2n1Cc1ccccc1N(C(=O)c1ccc(-c3cccc4ccccc34)cc1Cl)C2)N1CCN(c2ccccn2)CC1` : reported inhibition at 0.1 µM = ?
21

Entry `Cc1ccccc1-c1ccc(C(=O)N2Cc3ccc(C(=O)NCc4ccccn4)n3Cc3ccccc32)cc1` : reported inhibition at 0.1 µM = ?
22

Entry `COc1cccc(-c2ccc(C(=O)N3Cc4ccc(C(=O)NCc5cccnc5)n4Cc4ccccc43)cc2C)c1` : reported inhibition at 0.1 µM = ?
26

Entry `COc1cc(C(=O)N2Cc3ccc(C(=O)NCc4ccccn4)n3Cc3ccccc32)ccc1-c1ccccc1C` : reported inhibition at 0.1 µM = ?
50

Entry `COc1cc(C(=O)N2Cc3ccc(C(=O)N4CCN(c5ccccn5)CC4)n3Cc3ccccc32)ccc1-n1c(C)ccc1C` : reported inhibition at 0.1 µM = ?
22

Entry `Cc1ccccc1-c1ccc(C(=O)N2Cc3ccc(C(=O)NCc4ccncc4)n3Cc3ccccc32)cc1C` : reported inhibition at 0.1 µM = ?
67

Entry `Cc1cc(C(=O)N2Cc3ccc(C(=O)NCc4cccnc4)n3Cc3ccccc32)ccc1-c1ccccc1C(F)(F)F` : reported inhibition at 0.1 µM = ?
15

Entry `Cc1ccccc1-c1ccc(C(=O)N2Cc3ccc(C(=O)NCc4cccnc4)n3Cc3ccccc32)cc1` : reported inhibition at 0.1 µM = ?
17
